Origin of measurements: patent US6506707B1

- Tested on: dandelion
- assay remarks: Direct droplet bioassay on dandelion (Example 6)
- Format: in vivo
- test settings: individual oils, applied in one microliter of methanol
metric: relative toxicity to dandelion (ranking by EC50)

Solved entries (count: 4):
Cc1ccc(C(C)C)c(O)c1 = most toxic
O=C/C=C/c1ccccc1 = most toxic
COC(=O)c1ccccc1O [methyl salicylate, Methyl Salicylate] = most toxic
CC(C)=CCCC(C)CC=O (centres unmarked) = most toxic

Then there is this molecule:
relative toxicity to dandelion (ranking by EC50) lookup needed for CC12CCC(CC1)C(C)(C)O2 , thanks.
most toxic
